Assign absorbance 490 nm/630 nm to each entry below.
Target under test: T1, full-length recombinant human PAD4 (human, UniProt Q9UM07 1-663)
T1 construct: also called peptidylarginine deiminase 4
T1 sequence (Q9UM07 whole entry): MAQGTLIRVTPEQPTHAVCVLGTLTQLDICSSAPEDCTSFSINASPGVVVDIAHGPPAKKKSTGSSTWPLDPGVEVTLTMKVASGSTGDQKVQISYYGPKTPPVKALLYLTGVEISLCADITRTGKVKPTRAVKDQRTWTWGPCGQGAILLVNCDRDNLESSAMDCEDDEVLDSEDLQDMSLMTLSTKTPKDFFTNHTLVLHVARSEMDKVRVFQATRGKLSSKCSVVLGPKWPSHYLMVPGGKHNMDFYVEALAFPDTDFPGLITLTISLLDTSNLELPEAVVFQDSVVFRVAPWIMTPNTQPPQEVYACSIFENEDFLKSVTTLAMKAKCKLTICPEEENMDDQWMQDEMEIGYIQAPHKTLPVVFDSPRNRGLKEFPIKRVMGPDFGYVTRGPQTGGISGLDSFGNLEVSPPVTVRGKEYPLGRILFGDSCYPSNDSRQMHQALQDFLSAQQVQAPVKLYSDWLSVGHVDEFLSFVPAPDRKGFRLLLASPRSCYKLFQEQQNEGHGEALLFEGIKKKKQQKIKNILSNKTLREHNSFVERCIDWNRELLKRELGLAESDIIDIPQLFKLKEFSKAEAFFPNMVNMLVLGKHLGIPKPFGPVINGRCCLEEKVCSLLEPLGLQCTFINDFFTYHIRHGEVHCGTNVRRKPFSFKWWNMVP
Measurement notes: ELISA, human PAD4 on plate, antibody 0.015625 ug/mL
Dear colleague, please send the value followed by its unit.

Hello, I would appreciate it if you could give absorbance 490 nm/630 nm for each entry below.
1. G6 (antibody, IgG1, V domains shown, Chicken variable regions in mouse chimeric antibody (IgG1) expression vectors; also called anti-PAD4 antibody G6; A11 etc) VH: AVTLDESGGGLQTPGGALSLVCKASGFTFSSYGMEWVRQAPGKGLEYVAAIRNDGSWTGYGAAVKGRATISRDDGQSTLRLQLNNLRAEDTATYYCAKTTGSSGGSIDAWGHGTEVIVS VL: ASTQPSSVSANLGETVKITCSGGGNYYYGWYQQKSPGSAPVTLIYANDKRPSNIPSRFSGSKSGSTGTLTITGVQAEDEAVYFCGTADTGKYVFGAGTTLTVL
2. H7 (antibody, IgG1, V domains shown, Chicken variable regions in mouse chimeric antibody (IgG1) expression vectors; also called anti-PAD4 antibody H7; A11 etc) VH: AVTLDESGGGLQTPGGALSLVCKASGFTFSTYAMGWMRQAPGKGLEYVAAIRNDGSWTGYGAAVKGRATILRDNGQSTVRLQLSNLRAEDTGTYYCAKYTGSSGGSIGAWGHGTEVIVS VL: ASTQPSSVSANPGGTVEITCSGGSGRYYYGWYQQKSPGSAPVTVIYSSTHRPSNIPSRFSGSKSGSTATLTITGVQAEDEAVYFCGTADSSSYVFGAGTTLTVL
3. G9 (antibody, IgG1, V domains shown, Chicken variable regions in mouse chimeric antibody (IgG1) expression vectors; also called anti-PAD4 antibody G9; A11 etc) VH: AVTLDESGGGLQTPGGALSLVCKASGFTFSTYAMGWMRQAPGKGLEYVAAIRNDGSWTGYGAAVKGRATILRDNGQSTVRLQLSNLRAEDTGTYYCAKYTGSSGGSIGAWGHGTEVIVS VL: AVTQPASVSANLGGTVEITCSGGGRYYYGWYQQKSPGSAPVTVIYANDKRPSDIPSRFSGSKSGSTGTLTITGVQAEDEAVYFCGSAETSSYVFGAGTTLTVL

1: 2.01 OD; 2: 2.07 OD; 3: 2.07 OD
